Test system: NCI-H2087
Assay: relative viability (nuclei count vs DMSO), 5 days (fraction); higher = more cells survive
Conditions: first compound 0.01581 µM
Attribute: relative viability

Ask: Param item = CC1(C)CCC(c2ccc(Cl)cc2)=C(CN2CCN(c3ccc(C(=O)NS(=O)(=O)c4ccc(N[C@H](CCN5CCOCC5)CSc5ccccc5)c(S(=O)(=O)C(F)(F)F)c4)cc3)CC2)C1 [Navitoclax] + Cc1cc(Nc2cc(N3CCN(C)CC3)nc(Sc3ccc(NC(=O)C4CC4)cc3)n2)n[nH]1 [Tozasertib] (partner 0.1 µM) ; retrieve measured relative viability.
Result: 0.236

Ask: Param item = CC1(C)CCC(c2ccc(Cl)cc2)=C(CN2CCN(c3ccc(C(=O)NS(=O)(=O)c4ccc(N[C@H](CCN5CCOCC5)CSc5ccccc5)c(S(=O)(=O)C(F)(F)F)c4)cc3)CC2)C1 [Navitoclax] + CCNC(=O)c1noc(-c2cc(C(C)C)c(O)cc2O)c1-c1ccc(CN2CCOCC2)cc1 [Luminespib] (partner 0.01 µM) ; retrieve measured relative viability.
Result: 0.204

We next turn to a different compound, shown below.
Ask: Param item = CC1(C)CCC(c2ccc(Cl)cc2)=C(CN2CCN(c3ccc(C(=O)NS(=O)(=O)c4ccc(N[C@H](CCN5CCOCC5)CSc5ccccc5)c(S(=O)(=O)C(F)(F)F)c4)cc3)CC2)C1 [Navitoclax] + CC(C)C[C@H](NC(=O)[C@H](Cc1ccccc1)NC(=O)c1cnccn1)B(O)O [Bortezomib] (partner 0.002 µM) ; retrieve measured relative viability.
Result: 0.979
